Item-by-item account of EC50
# experimental-system: Melanocortin receptor 5 (Homo sapiens, UniProt P33032)
# Sequence (P33032 whole entry): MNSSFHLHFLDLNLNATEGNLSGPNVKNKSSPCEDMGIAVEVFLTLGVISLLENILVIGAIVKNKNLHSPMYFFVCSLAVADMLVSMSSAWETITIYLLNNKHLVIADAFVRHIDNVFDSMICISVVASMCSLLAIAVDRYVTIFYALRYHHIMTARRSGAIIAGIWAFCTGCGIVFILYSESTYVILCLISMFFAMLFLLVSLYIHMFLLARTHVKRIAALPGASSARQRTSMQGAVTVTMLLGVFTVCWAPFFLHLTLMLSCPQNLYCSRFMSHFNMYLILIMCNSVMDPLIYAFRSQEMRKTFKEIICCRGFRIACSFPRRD
# assay-summary: Agonist activity at human MC5R expressed in CHO cells assessed as cAMP accumulation
# Assay type: functional, cell-based

compound	metric-name	result
CCCC[C@H](NC(C)=O)C(=O)N[C@H]1CC(=O)NCCCC[C@@H](C(N)=O)NC(=O)[C@H](Cc2c[nH]c3ccccc23)NC(=O)[C@@H]2CCCN2C(=O)[C@@H](Cc2ccc(Cl)cc2)NC(=O)[C@H](Cc2c[nH]cn2)NC1=O	EC50	82 nM (agonist)
CCCC[C@H](NC(C)=O)C(=O)N[C@H]1CC(=O)NCCCC[C@@H](C(N)=O)NC(=O)[C@H](Cc2c[nH]c3ccccc23)NC(=O)[C@@H]2CCCCN2C(=O)[C@@H](Cc2ccc(-c3ccccc3)cc2)NC(=O)[C@H](c2ccccc2)NC1=O	EC50	0.29 nM (agonist)
CCCC[C@H](NC(C)=O)C(=O)N[C@H]1CC(=O)NCCCC[C@@H](C(N)=O)NC(=O)[C@H](Cc2c[nH]c3ccccc23)NC(=O)[C@@H]2CCCN2C(=O)[C@@H](Cc2ccc(-c3ccccc3)cc2)NC(=O)[C@H](Cc2c[nH]cn2)NC1=O	EC50	2.5 nM (agonist)
CCCC[C@H](NC(C)=O)C(=O)N[C@H]1CC(=O)NCCCC[C@@H](C(N)=O)NC(=O)[C@H](Cc2c[nH]c3ccccc23)NC(=O)[C@@H]2CCCN2C(=O)[C@@H](Cc2ccc(OCC)cc2)NC(=O)[C@H](Cc2cnc[nH]2)NC1=O	EC50	270 nM (agonist)
CCCC[C@H](NC(C)=O)C(=O)N[C@H]1CC(=O)NCCCC[C@@H](C(N)=O)NC(=O)[C@H](Cc2c[nH]c3ccccc23)NC(=O)[C@@H]2CCCCN2C(=O)[C@@H](Cc2ccc(-c3ccccc3)cc2)NC(=O)[C@H](C2CCCCC2)NC1=O	EC50	1 nM (agonist)

Need EC50, item "CCCC[C@H](NC(C)=O)C(=O)N[C@H]1CC(=O)NCCCC[C@@H](C(N)=O)NC(=O)[C@H](Cc2c[nH]c3ccccc23)NC(=O)[C@@H]2CCCN2C(=O)[C@@H](Cc2ccc([N+](=O)[O-])cc2)NC(=O)[C@H](Cc2cnc[nH]2)NC1=O"
770 nM (agonist)

For the compound shown here, "CCCC[C@H](NC(C)=O)C(=O)N[C@H]1CC(=O)NCCCC[C@@H](C(N)=O)NC(=O)[C@H](Cc2c[nH]c3ccccc23)NC(=O)[C@@H]2CCCCN2C(=O)[C@@H](Cc2ccc(-c3ccccc3)cc2)NC(=O)[C@H](C(C)C)NC1=O" , give the reported EC50.
0.23 nM (agonist)

Fill in the blank: the reported EC50 of CCCC[C@H](NC(C)=O)C(=O)N[C@H]1CC(=O)NCCCC[C@@H](C(N)=O)NC(=O)[C@H](Cc2c[nH]c3ccccc23)NC(=O)[C@@H]2CCCCN2C(=O)[C@@H](Cc2ccc(-c3ccccc3)cc2)NC(=O)[C@@H]2CC3CCCCC3N2C1=O (stereo partly drawn) is ____.
0.99 nM (agonist)
